# System Tested: MK2 (Homo sapiens)
# Sequence (P49137 whole entry): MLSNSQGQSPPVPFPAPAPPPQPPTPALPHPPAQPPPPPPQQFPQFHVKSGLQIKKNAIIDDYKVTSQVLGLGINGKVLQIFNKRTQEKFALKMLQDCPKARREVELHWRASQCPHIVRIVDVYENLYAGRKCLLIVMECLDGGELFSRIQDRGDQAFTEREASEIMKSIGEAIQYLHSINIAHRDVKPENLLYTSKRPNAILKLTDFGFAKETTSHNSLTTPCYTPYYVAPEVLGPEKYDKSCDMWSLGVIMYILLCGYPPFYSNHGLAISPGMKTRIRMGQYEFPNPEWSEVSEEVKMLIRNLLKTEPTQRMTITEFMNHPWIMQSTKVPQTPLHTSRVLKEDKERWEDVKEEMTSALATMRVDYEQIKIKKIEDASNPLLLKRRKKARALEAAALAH
# Measurement Notes: MK2 degradation in human THP-1 monocytic cells (MSD, 24 h)
# Format: cell-based
# Set-up: endogenous in cells
# Condition Label: THP-1, THP-1 cells
Property Measured: Dmax

# count of solved cases: 3
stdin: Please look up its Dmax: CCc1cc(-c2cc(-c3cc4c([nH]3)CCNC4=O)ccn2)cc(CC)c1N1CCN(CC2CCN(c3ccc4c(c3)n(C)c(=O)n4C3CCC(=O)NC3=O)CC2)CC1 (centres unmarked) [Compound I-447]
stdout: < 50%

stdin: Please look up its Dmax: C[C@@H]1CNc2c(sc3ccc4nc(N5C6CCC5CN(CC5CCN(c7ccc8c(c7)n(C)c(=O)n8C7CCC(=O)NC7=O)CC5)C6)ccc4c23)C(=O)N1 (some centres unmarked) [Compound I-434]
stdout: < 50%

stdin: Please look up its Dmax: Cn1c(=O)n(C2CCC(=O)NC2=O)c2ccc(N3CCC(CN4CCN(c5ccc(-c6cc(-c7cc8c(s7)CCNC8=O)ccn6)cc5)CC4)CC3)cc21 (centres unmarked) [Compound I-406]
stdout: < 50%

Further cases:
stdin: Please look up its Dmax: C[C@@H]1CNc2c(sc3ccc4nc(-c5ccc(N6CCN(CC7CCN(c8cccc9c8n(C)c(=O)n9C8CCC(=O)NC8=O)CC7)CC6)cc5)ccc4c23)C(=O)N1 (some centres unmarked) [Compound I-126]
stdout: > 75%

stdin: Please look up its Dmax: C[C@@H]1CNc2c(sc3ccc4nc(N5CC6(CCN(C7CCN(c8ccc9c(c8)n(C)c(=O)n9C8CCC(=O)NC8=O)CC7)CC6)C5)ccc4c23)C(=O)N1 (some centres unmarked) [Compound I-393]
stdout: < 50%

stdin: Please look up its Dmax: Cc1cc(N2CCN(CC3CCN(c4ccc5c(c4)n(C)c(=O)n5C4CCC(=O)NC4=O)CC3)CC2)ccc1-c1cc(-c2cc3c([nH]2)CCNC3=O)ccn1 (centres unmarked) [Compound I-229]
stdout: < 50%

stdin: Please look up its Dmax: C[C@@H]1CNc2c(sc3ccc4nc(-c5cccc(C#CCCNC(=O)CCCCCCCCCc6ccc7c(c6)n(C)c(=O)n7C6CCC(=O)NC6=O)c5)ccc4c23)C(=O)N1 (some centres unmarked) [Compound I-45]
stdout: > 75%

stdin: Please look up its Dmax: C[C@@H]1CNc2c(sc3ccc4nc(-c5ccc(N6CCN(CC7CCN(c8ccc(N9CCC(=O)NC9=O)cc8)CC7)CC6)nc5)ccc4c23)C(=O)N1 [Compound I-438]
stdout: > 75%

stdin: Please look up its Dmax: C[C@@H]1CN(C)c2c(sc3ccc4nc(-c5ccc(N6CCN(CCc7cccc8c7n(C)c(=O)n8C7CCC(=O)NC7=O)CC6)cc5)ccc4c23)C(=O)N1 (some centres unmarked) [Compound I-413]
stdout: > 75%

stdin: Please look up its Dmax: Cn1c(=O)n(C2CCC(=O)NC2=O)c2cccc(CCCN3CCN(c4ccc(-c5cc(-c6cc7c([nH]6)C6(CC6)CNC7=O)ccn5)cn4)CC3)c21 (centres unmarked) [Compound I-199]
stdout: > 75%

stdin: Please look up its Dmax: Cn1c(=O)n(C2CCC(=O)NC2=O)c2cccc(CCN3CCN(c4ccc(-c5cc(-c6cc7c([nH]6)C6(CC6)CNC7=O)ccn5)c(F)c4)CC3)c21 (centres unmarked) [Compound I-179]
stdout: > 75%
